- ASSAYED_TARGET: PI3K-δ (p110δ/p85α) (Homo sapiens (Human), UniProt O00329)
- Sequence (O00329 whole entry, species assumed): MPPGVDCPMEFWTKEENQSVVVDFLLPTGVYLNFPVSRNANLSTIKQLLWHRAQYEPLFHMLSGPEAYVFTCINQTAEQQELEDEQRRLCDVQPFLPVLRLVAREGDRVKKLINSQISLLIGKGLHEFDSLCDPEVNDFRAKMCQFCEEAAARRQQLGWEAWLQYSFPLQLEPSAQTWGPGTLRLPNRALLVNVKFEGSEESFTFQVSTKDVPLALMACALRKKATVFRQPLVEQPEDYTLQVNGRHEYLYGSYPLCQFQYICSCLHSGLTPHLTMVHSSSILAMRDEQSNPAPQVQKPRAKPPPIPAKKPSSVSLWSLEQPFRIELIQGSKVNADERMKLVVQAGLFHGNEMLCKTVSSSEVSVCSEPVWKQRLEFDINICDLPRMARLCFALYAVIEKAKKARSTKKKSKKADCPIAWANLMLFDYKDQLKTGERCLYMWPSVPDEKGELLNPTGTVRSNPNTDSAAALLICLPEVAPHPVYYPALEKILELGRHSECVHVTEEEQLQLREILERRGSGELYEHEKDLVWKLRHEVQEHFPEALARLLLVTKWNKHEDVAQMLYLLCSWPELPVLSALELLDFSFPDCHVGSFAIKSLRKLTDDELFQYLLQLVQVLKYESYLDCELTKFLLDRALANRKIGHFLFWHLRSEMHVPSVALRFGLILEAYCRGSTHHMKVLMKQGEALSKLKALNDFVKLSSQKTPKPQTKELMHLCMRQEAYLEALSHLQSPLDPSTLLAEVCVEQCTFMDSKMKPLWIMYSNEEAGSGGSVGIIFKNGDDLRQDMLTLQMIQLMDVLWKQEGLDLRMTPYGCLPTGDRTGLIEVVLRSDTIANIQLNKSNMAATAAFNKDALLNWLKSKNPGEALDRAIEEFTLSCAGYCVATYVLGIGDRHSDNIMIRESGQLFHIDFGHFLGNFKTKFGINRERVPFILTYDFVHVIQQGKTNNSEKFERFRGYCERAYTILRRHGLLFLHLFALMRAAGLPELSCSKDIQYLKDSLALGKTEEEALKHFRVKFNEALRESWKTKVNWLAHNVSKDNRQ
- Sequence (P27986 whole entry partner, species assumed): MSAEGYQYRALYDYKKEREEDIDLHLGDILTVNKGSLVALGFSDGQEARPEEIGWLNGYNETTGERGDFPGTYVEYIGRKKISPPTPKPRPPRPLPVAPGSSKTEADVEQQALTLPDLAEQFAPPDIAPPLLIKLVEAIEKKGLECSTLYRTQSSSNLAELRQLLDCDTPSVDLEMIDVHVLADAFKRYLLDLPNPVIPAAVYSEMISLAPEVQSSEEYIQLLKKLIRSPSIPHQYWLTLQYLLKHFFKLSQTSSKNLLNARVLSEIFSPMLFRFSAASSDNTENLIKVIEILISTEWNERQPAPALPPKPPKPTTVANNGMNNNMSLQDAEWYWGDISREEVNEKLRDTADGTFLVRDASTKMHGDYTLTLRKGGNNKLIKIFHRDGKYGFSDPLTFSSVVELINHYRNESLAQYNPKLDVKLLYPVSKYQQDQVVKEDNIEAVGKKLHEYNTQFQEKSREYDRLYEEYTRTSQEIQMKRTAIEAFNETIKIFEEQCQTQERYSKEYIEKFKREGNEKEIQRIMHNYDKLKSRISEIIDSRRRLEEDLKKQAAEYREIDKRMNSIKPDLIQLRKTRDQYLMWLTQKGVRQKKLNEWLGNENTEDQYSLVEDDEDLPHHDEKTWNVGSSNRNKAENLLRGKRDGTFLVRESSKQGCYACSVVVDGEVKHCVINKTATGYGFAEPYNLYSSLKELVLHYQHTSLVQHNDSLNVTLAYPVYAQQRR
- TEST_METHOD_NOTES: Transcreener KINASE Assay, fluorescent determination of PI3K enzyme activity
ASSAY_METRIC: pIC50
Scale note: pIC50 = -log10(concentration in M).

Some molecules with recorded pIC50:
C[C@@H](c1cc2ncc(Cl)n2nc1-c1ccccc1)n1cnc2c(N)ncnc21 ... 7.14
C[C@H](Nc1ncnc(N)c1C#N)c1cc2ncc(Cl)n2nc1-c1ccc(Cl)c(F)c1 ... 7.32

[in] Need pIC50, item C[C@H](Nc1ncnc(N)c1-c1nn[nH]n1)c1cc2ncc(Cl)n2nc1-c1ccccc1
[out] 8.22

[in] Need pIC50, item Cc1nc(N)c(C#N)c(N[C@@H](C)c2cc3ncc(Cl)n3nc2-c2ccccc2)n1
[out] 7.82

====

- ASSAYED_TARGET: PI3K-δ (p110δ/p85α) (Homo sapiens (Human), UniProt O00329)
- TEST_METHOD_NOTES: Transcreener KINASE Assay, fluorescent determination of PI3K enzyme activity;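 also: ADP formed by the kinase detected via far-red competitive fluorescence polarization immunoassay after 80 min room-temperature reaction, inhibition relative to 2% DMSO wells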
pIC50: −log10 of the molar value.
pIC50 below 8 gives N; pIC50 at or above it gives Y.

The examples below pair each entry with its known result.
CC[C@H](Nc1ncnc(N)c1C#N)c1cc2ncc(Cl)n2nc1-c1ccccc1 [Compound 6] ... Y
C[C@H](Nc1ncnc(N)c1C#N)c1cc2ncc(Cl)n2nc1-c1ccc(O)cc1 [Compound 49] ... Y

[in] Does the compound C[C@H](Nc1ncnc(N)c1C#N)c1cc2ncc(Cl)n2nc1-c1ccccc1F [Compound 12] have recorded pIC50 that is 8 or more?
[out] Y

[in] Does the compound CC[C@H](Nc1ncnc2[nH]cnc12)c1cc2ncc(Cl)n2nc1-c1cccc(F)c1 [Compound 47] have recorded pIC50 that is 8 or more?
[out] N

[in] Does the compound Cc1nc2cc([C@H](C)Nc3ncnc(N)c3C#N)c(-c3ccccc3)nn2c1Cl [Compound 59] have recorded pIC50 that is 8 or more?
[out] Y

[in] Does the compound C[C@H](Nc1ncnc(N)c1C#N)c1cc2ncc(Cl)n2nc1-c1cnn(C)c1 [Compound 72] have recorded pIC50 that is 8 or more?
[out] Y

[in] Does the compound CCC(Nc1ncnc(N)c1C#N)c1cc2ncc(Cl)n2nc1-c1ccccn1 (stereo not drawn) [Compound 29] have recorded pIC50 that is 8 or more?
[out] Y

====

- ASSAYED_TARGET: PI3K-δ (p110δ/p85α) (Homo sapiens (Human))
- TEST_METHOD_NOTES: Transcreener KINASE Assay, fluorescent determination of PI3K enzyme activity
ASSAY_METRIC: IC50

C[C@H](Nc1ncnc(N)c1C#N)c1cc2ncc(Cl)n2nc1-c1ccccc1S(C)(=O)=O ... 2 nM
C[C@H](Nc1ncnc(N)c1C#N)c1cc2ncc(Cl)n2nc1-c1ccncc1 ... 82 nM
C[C@H](Nc1ncnc2[nH]cnc12)c1cc2ncc(Cl)n2nc1-c1cccc(F)c1 ... 3 nM

--- query ---
[in] Need IC50, item CNc1ncnc(N[C@@H](C)c2cc3ncc(Cl)n3nc2-c2ccccc2)c1C#N
[out] 288 nM

====

- ASSAYED_TARGET: PI3K-γ (p110γ) (Homo sapiens (Human), UniProt P48736)
- Sequence (P48736 whole entry, species assumed): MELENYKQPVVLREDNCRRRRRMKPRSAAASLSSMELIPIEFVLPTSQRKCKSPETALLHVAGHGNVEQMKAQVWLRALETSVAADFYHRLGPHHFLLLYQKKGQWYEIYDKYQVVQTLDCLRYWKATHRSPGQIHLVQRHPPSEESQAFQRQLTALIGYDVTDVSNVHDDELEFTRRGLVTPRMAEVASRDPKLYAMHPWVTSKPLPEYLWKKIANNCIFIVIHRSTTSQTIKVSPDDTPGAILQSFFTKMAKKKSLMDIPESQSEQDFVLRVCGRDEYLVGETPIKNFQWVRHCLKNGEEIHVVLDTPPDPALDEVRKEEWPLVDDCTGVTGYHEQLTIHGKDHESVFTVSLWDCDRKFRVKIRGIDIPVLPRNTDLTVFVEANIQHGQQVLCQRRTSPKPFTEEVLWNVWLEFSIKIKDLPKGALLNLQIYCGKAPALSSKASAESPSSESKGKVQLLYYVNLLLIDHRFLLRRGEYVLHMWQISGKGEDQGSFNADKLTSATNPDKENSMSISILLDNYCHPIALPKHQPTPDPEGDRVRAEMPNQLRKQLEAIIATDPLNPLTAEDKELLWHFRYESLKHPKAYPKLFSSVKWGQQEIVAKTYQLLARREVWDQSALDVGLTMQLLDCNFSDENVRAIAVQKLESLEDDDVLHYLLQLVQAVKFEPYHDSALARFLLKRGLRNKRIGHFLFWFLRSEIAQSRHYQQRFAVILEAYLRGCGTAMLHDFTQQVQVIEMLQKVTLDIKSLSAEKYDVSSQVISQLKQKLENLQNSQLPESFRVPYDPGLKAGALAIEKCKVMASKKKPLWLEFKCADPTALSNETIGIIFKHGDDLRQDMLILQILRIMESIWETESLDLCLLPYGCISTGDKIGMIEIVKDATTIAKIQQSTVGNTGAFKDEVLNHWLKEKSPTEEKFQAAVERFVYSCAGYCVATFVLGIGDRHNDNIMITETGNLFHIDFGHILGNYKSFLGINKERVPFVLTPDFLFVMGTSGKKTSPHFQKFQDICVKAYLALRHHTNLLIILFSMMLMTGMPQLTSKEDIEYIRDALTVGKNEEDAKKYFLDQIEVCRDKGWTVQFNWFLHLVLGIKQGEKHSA
- TEST_METHOD_NOTES: Transcreener KINASE Assay, fluorescent determination of PI3K enzyme activity;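 also: ADP produced by p110γ kinase reaction, 80 min at room temperature, detected by far-red fluorescence polarization immunoassay, inhibition relative to 2% DMSO control wells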
- Assay type: biochemical
- CONDITIONS: at 1 μM; read-out: PI3K-γ IH % (inhibition rate)
inhibition at 1 µM below 40% gives n; inhibition at 1 µM at or above it gives y.

The examples below pair each entry with its known result.
C[C@@H](Nc1ncnc(N)c1C#N)c1cc2ncc(Cl)n2nc1-c1ccccc1 [Compound 3] ... n
C[C@H](Nc1nc(O)nc(N)c1C#N)c1cc2ncc(Cl)n2nc1-c1ccccc1 [Compound 55] ... n
C[C@H](Nc1ncnc(N)c1C#N)c1cc2ncc(Cl)n2nc1-c1cc(F)ccc1F [Compound 35] ... y

[in] Does the molecule CCC(Nc1ncnc2[nH]cnc12)c1cc2ncc(Cl)n2nc1-c1ccccc1 (centres unmarked) [Compound 14] have recorded inhibition at 1 µM that is 40% or more?
[out] n

[in] Does the molecule C[C@@H](c1cc2ncc(Cl)n2nc1-c1ccccc1)n1cnc2c(N)ncnc21 [Compound 20] have recorded inhibition at 1 µM that is 40% or more?
[out] y

[in] Does the molecule C[C@H](Nc1ncnc(N)c1C(N)=O)c1cc2ncc(Cl)n2nc1-c1ccccc1 [Compound 53] have recorded inhibition at 1 µM that is 40% or more?
[out] n

[in] Does the molecule C[C@H](Nc1ncnc(N)c1-c1cccc(F)c1)c1cc2ncc(Cl)n2nc1-c1ccccc1 [Compound 37] have recorded inhibition at 1 µM that is 40% or more?
[out] n

====

- ASSAYED_TARGET: PI3K-γ (p110γ) (Homo sapiens (Human))
- TEST_METHOD_NOTES: Transcreener KINASE Assay, fluorescent determination of PI3K enzyme activity
- Type: biochemical
- CONDITIONS: at 1 μM; read-out: PI3K-γ IH % (inhibition rate)
Entries and their measured inhibition at 1 µM follow.
State the answer as a number, implicitly in %.

Some molecules with recorded inhibition at 1 µM:
C[C@H](Nc1ncnc(N)c1C(=O)N(C)C)c1cc2ncc(Cl)n2nc1-c1ccccc1 [Compound 56] ... 1
COc1ccc(-c2c(N)ncnc2N[C@@H](C)c2cc3ncc(Cl)n3nc2-c2ccccc2)cn1 [Compound 39] ... 28.1
C[C@@H](c1cc2ncc(Cl)n2nc1-c1ccccc1)n1ccc2c(N)ncnc21 [Compound 27] ... 24.9
C[C@H](Nc1ncnc2[nH]ccc12)c1cc2ncc(Cl)n2nc1-c1ccccc1 [Compound 17] ... 61.2
CC[C@@H](Nc1ncnc(N)c1C#N)c1cc2ncc(Cl)n2nc1-c1ccccc1 [Compound 5] ... 4.1
C[C@H](Nc1ncnc(N)c1-c1ccc(O)c(F)c1)c1cc2ncc(Cl)n2nc1-c1ccccc1 [Compound 38] ... 54.3

[in] Need inhibition at 1 µM, item C[C@H](Nc1ncnc(N)c1C#N)c1cc2ncc(Cl)n2nc1-c1ccccn1 [Compound 8]
[out] -1.4

[in] Need inhibition at 1 µM, item C[C@H](Nc1ncnc(N)c1C#N)c1cc2ncc(Cl)n2nc1-c1ccc2ccccc2c1 [Compound 71]
[out] 32.6

[in] Need inhibition at 1 µM, item Cc1cn2nc(-c3ccccc3)c([C@H](C)Nc3ncnc(N)c3C#N)cc2n1 [Compound 58]
[out] 20.2

[in] Need inhibition at 1 µM, item C[C@@H](c1cc2ncc(Cl)n2nc1-c1ccccc1)N(C)c1ncnc(N)c1C#N [Compound 42]
[out] 18.2

[in] Need inhibition at 1 µM, item C[C@H](Nc1nc(N)ncc1C#N)c1cc2ncc(Cl)n2nc1-c1ccccc1 [Compound 34]
[out] -19.3

[in] Need inhibition at 1 µM, item CC[C@@H](Nc1ncnc(N)c1C#N)c1cc2ncc(Cl)n2nc1-c1cccc(F)c1 [Compound 43]
[out] 27.2

[in] Need inhibition at 1 µM, item CC[C@H](Nc1ncnc2[nH]cnc12)c1cc2ncc(Cl)n2nc1-c1cccc(F)c1 [Compound 47]
[out] 55.2

[in] Need inhibition at 1 µM, item C[C@@H](Nc1ncnc(N)c1C#N)c1cc2ncc(Cl)n2nc1-c1ccc2scnc2c1 [Compound 75]
[out] 31.7

[in] Need inhibition at 1 µM, item C[C@H](Nc1ncnc(N)c1-c1cnn(C)c1)c1cc2ncc(Cl)n2nc1-c1ccccc1 [Compound 57]
[out] 30.3

[in] Need inhibition at 1 µM, item CNc1ncnc(N[C@@H](C)c2cc3ncc(Cl)n3nc2-c2ccccc2)c1C#N [Compound 33]
[out] -6.9

[in] Need inhibition at 1 µM, item CCC(Nc1ncnc2[nH]cnc12)c1cc2ncc(Cl)n2nc1-c1ccccc1F (single isomer, unassigned) [Compound 26]
[out] 8

[in] Need inhibition at 1 µM, item C[C@H](Nc1ncnc(N)c1C#N)c1cc2ncc(Cl)n2nc1-c1ccc2cccnc2c1 [Compound 61]
[out] 26.5

====

- Tested on: SU-DHL-6 cells
- TEST_METHOD_NOTES: In vitro cell proliferation assay in SU-DHL-6 cell line (CCK-8)
- Assay type: cell-based
- CONDITIONS: Homo sapiens, SU-DHL-6, 72 h
Entries and their measured pIC50 follow.
Scale note: pIC50 = -log10(concentration in M).

Some compounds with recorded pIC50:
CCC(Nc1ncnc(N)c1C#N)c1cc2ncc(Cl)n2nc1-c1ccccn1 (stereo not shown) [Compound 29] ... 7.96
Cc1cnc2cc([C@H](C)Nc3ncnc4[nH]cnc34)c(-c3ccccc3)nn12 [Compound 23] ... 7.11
C[C@H](Nc1ncnc2[nH]ccc12)c1cc2ncc(Cl)n2nc1-c1ccccc1 [Compound 17] ... 6.76
C[C@H](Nc1ncnc(N)c1C#N)c1cc2ncc(Cl)n2nc1-c1cccc(F)c1 [Compound 15] ... 8.70

[in] Need pIC50, item Cc1cnc2cc([C@H](C)Nc3ncnc(N)c3C#N)c(-c3ccccc3)nn12 [Compound 22]
[out] 7.72

[in] Need pIC50, item C[C@H](Nc1ncnc(N)c1C#N)c1cc2ncc(Cl)n2nc1-c1ccccn1 [Compound 8]
[out] 7.51

[in] Need pIC50, item C[C@H](Nc1ncnc2[nH]cnc12)c1cc2ncc(Cl)n2nc1-c1ccccc1F [Compound 13]
[out] 7.96

[in] Need pIC50, item CCC(Nc1ncnc(N)c1C#N)c1cc2ncc(Cl)n2nc1-c1ccccc1F (stereo not shown) [Compound 19]
[out] 7.64

[in] Need pIC50, item C[C@@H](c1cc2ncc(Cl)n2nc1-c1ccccc1)n1cnc2c(N)ncnc21 [Compound 20]
[out] 6.58
